experiment: Cytotoxicity against mammalian cells (MTT assay); format: cell-based; settings: mouse, NCTC clone 929 cells
Documented CC50 at 48 h across a set of molecules
assay_metric: CC50 at 48 h (µM)

1) O=C(Cn1ccnc1[N+](=O)[O-])NCc1ccccc1 [Benznidazole, benznidazole, reference compound] ... 484
2) CCCC#CC#CCCCCCCCCCCC(=O)O ... 160
